molecular target: Transient receptor potential cation channel subfamily V member 1 (Homo sapiens, UniProt Q8NER1); experiment: Antagonist activity against human TRPV1 expressed in HEK293 cells assessed as ph 5.0-induced calcium flux at 30 uM by FLIPR assay; format: cell-based
Sequence (Q8NER1 whole entry): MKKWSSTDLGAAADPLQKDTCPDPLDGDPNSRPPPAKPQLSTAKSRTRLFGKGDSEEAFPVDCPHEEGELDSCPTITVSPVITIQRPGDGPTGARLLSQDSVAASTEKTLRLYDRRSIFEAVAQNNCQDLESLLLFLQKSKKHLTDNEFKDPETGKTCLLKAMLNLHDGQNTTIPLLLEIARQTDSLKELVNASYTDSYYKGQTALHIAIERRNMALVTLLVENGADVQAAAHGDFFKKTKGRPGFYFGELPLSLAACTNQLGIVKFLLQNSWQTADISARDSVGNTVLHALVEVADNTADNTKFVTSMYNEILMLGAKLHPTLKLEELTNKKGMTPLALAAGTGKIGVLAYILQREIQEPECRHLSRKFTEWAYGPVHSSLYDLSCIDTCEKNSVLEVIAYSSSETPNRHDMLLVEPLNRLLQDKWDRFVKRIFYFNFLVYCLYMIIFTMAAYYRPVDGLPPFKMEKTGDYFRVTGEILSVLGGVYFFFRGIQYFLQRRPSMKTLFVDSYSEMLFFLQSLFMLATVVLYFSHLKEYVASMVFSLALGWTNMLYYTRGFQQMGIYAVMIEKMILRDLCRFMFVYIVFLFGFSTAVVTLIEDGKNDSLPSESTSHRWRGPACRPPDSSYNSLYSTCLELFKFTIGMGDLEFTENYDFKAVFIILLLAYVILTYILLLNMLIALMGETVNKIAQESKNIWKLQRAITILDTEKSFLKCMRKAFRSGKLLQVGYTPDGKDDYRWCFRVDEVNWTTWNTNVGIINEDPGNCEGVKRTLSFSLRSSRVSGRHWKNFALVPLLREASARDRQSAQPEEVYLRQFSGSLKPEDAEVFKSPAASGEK
# maps each entry to its inhibition
Hi! Could you send only the number? It should be in %, unit omitted.

Look over these answered cases.
- COMPOUND: "CCC1(CC)C[C@@H](NC(=O)Nc2cccc3cnc(C)cc23)c2cccc(F)c2O1"
  UNIT SYMBOL: "%"
  inhibition: 59
- COMPOUND: "Cc1cc2c(NC(=O)N[C@@H]3CC(CF)(CF)Oc4cc(Cl)ccc43)c(F)ccc2cn1"
  UNIT SYMBOL: "%"
  inhibition: 91

Write down inhibition measured for item Cc1cc2c(NC(=O)N[C@@H]3CC(CF)(CF)Oc4cc(Cl)ccc43)cc(C(F)(F)F)cc2cn1
95

Write down inhibition measured for item CC1(C)C[C@@H](NC(=O)Nc2cccc3cnccc23)c2ccc(OC(F)(F)F)cc2O1
96

Write down inhibition measured for item CC1(C)C[C@@H](NC(=O)Nc2cccc3cnccc23)c2ccccc2O1
60

Write down inhibition measured for item Cc1cc2c(NC(=O)N[C@@H]3CC(C)(C)Oc4c3ccc(C(F)(F)F)c4F)cccc2cn1
86

Write down inhibition measured for item CCCC1(CCC)C[C@@H](NC(=O)Nc2cccc3cnc(C)cc23)c2cccc(F)c2O1
13

Write down inhibition measured for item Cc1cc2c(NC(=O)N[C@@H]3CC(CF)(CF)Oc4cc(C5CC5)ccc43)cccc2cn1
91

Write down inhibition measured for item CC(C)(C)c1ccc2c(c1)CC[C@H]2NC(=O)Nc1cccc2[nH]ncc12 [ABT-102]
98

The measurements presented in this section are drawn from ChEMBL document CHEMBL3352000.
